Assay Protocol: Cytotoxicity against human ChaGo cells after 3 days by MTT assay
Type: functional, cell-based
Conditions: 72 h
Measure: IC50 (µg/mL)

- C=C1C(=O)O[C@@H]2C[C@@H]3[C@]4(CC[C@]5(C)[C@@H]([C@H](C)CCC=C(C)C)CC[C@@]35C)C[C@]4(CCC(=O)OC)[C@H]12 [TUBIFEROLIDE METHYL ESTER]: 4.08
- C=C1C(=O)O[C@@H]2C[C@@H]3[C@]4(CC[C@]5(C)[C@@H]([C@H](C)CC/C=C(\C)CO)CC[C@@]35C)C[C@]4(CCC(=O)OC)[C@H]12 [SOOTEPIN A]: 3.97
- COc1cccc2c1C(=O)c1c(O)c3c(c(O)c1C2=O)C[C@@](O)(C(=O)CO)C[C@@H]3O[C@H]1C[C@H](N)[C@H](O)[C@H](C)O1 [DOXORUBICIN]: 3.98
- C=C1C(=O)O[C@@H]2C[C@@H]3[C@]4(CC[C@]5(C)[C@@H]([C@H](C)CCC=C(C)C)CC[C@@]35C)C[C@]4(CCC(=O)O)[C@H]12 [SOOTEPIN B]: 5.24
- C=C1C(=O)O[C@@H]2C[C@@H]3[C@]4(CC[C@]5(C)[C@@H]([C@H](C)CC/C=C(\C)C=O)CC[C@@]35C)C[C@]4(CCC(=O)O)[C@H]12 [CORONALOLIDE]: 5.42
- C=C(C)[C@@H]1CC[C@@H]2[C@]3(CC[C@]4(C)[C@@H]([C@H](C)CCC=C(C)C)CC[C@@]24C)C[C@]13CCC(=O)O [SOOTEPIN E]: 5.2
